src = patent US20240246932A1

Target: human NaV 1.8 channels stably expressed in HEK 293 cells (Homo sapiens (Human), UniProt Q9Y5Y9)
Sequence (Q9Y5Y9 whole entry): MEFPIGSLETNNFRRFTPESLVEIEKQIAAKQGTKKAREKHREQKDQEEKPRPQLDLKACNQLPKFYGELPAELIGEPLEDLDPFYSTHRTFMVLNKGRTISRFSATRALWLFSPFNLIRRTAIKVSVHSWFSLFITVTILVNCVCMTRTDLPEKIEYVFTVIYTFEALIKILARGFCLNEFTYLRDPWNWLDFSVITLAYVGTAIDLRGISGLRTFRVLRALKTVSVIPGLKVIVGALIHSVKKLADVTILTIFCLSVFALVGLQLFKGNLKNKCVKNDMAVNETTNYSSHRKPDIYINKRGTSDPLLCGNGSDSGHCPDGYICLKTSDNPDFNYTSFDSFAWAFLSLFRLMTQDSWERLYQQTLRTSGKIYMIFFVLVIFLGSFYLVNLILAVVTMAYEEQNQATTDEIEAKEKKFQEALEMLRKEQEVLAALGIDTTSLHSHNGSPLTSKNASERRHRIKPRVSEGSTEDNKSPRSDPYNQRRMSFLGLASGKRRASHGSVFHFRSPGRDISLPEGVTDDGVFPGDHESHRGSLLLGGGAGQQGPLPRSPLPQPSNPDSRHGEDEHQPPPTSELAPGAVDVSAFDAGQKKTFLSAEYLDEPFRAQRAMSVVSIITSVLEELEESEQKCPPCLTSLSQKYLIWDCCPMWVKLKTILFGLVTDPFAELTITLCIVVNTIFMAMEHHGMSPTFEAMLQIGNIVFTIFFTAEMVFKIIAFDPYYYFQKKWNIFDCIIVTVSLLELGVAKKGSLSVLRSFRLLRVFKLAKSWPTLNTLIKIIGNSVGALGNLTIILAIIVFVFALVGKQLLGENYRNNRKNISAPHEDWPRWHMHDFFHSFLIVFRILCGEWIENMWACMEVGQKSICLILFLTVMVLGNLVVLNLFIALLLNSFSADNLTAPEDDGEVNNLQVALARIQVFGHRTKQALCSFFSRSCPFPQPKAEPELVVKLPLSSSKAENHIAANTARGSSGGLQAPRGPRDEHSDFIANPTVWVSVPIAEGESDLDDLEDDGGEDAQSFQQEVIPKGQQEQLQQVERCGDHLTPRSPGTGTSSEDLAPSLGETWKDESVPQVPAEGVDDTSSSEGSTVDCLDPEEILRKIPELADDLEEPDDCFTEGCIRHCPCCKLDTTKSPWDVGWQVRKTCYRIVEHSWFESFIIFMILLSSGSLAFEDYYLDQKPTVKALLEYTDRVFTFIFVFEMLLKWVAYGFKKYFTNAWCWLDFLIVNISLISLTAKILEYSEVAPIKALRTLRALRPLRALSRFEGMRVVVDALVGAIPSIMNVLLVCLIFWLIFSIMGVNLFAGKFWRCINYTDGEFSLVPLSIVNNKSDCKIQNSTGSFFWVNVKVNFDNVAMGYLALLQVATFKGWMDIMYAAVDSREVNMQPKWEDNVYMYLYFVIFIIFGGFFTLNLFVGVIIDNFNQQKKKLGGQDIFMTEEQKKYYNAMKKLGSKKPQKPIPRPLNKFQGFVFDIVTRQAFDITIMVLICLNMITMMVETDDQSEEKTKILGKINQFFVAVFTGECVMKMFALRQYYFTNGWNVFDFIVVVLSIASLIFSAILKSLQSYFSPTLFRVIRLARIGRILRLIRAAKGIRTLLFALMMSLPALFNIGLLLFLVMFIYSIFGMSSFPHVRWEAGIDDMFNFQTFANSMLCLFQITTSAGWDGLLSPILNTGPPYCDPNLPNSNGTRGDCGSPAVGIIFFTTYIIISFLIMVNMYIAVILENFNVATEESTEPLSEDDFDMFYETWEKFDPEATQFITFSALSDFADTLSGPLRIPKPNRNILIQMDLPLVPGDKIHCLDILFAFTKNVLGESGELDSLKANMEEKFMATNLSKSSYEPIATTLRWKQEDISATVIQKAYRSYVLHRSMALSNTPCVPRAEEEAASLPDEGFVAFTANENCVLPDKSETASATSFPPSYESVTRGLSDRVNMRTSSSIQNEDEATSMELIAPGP
Assay: Nav1.8 Qube automated patch-clamp assay
Assay type: cell-based
Details: human NaV1.8 in HEK 293 cells, whole-cell voltage clamp, room temperature; read-out: IC50 values (nM) for Examples in the Nav1.8 Qube Assay
measure: IC50 (nM)

Sample records with IC50:
molecule	IC50, nM
CC(C)C1C(=O)NCCN1C(=O)NC(c1ccc(C(F)(F)F)nc1)c1ccc(F)c(Cl)c1F (single isomer, unassigned) [Example 39B]	15.2
C[C@H]1CN(C(=O)NC(c2ccc(F)c(Cl)c2)c2cccc(C(F)(F)F)n2)CC(=O)N1 (single isomer, unassigned) [Example 46A]	924
C[C@@H]1C(=O)NCCN1C(=O)NC(c1ccc(OC2CC2)c(F)c1)c1cnc(C(F)(F)F)c(Cl)c1 (single isomer, unassigned) [Example 25B]	15.8
C[C@@H]1C(=O)NCCN1C(=O)NC(c1ccc(C2CC2)nc1)c1ccc(F)c(Cl)c1F (single isomer, unassigned) [Example 33A]	14.4

P. C[C@@H]1C(=O)NCCN1C(=O)NC(c1cnc(OC(F)F)nc1)c1ccc(F)c(Cl)c1F (single isomer, unassigned) [Example 74A]
Q. C[C@@H]1C(=O)NCCN1C(=O)NC(c1ccc(F)c(Cl)c1)c1cnn(CC(F)(F)F)c1 (single isomer, unassigned) [Example 67A]
## Task Form field 'greater IC50' accepts P or Q ; which applies? Your answer should be the label of the entry you select.
## Result Q
(Q: 890 nM, P: 71.1 nM)
